# testedOn: human SOS1 (loading of human K-Ras^G12C-GDP with fluorescent GTP-analog) (Homo sapiens, UniProt Q07889)
# testMethodNotes: Biochemical assay 3: K-Ras^G12C activation assay by hSOS1 (HTRF)
# measurementSetup: no GTP; read-out: Assay 3 (KRAS-Activation by SOS no GTP) activity expressed as IC50
Hi there, I'd appreciate the recorded pIC50 for every entry that follows.
Numbers only, as −log10 of the molar value.

Count: 2. Required value per item: pIC50.
1. COc1cc2nc(C)nc(NC(C)c3cccc4nn(C)cc34)c2cc1OC (centres unmarked)
2. COc1cc2nc(C)nc(NC(C)c3ccc(-c4cnc5n4CCC5)s3)c2cc1OC (centres unmarked) [Example 219]

Output line:
1. 5.22
2. 6.04

Provide pIC50 values for the following items, in order.
1. COc1cc2nc(C)nc(NC(C)c3cccc4sccc34)c2cc1OC (centres unmarked)
2. COc1cc2nc(C)nc(N[C@H](C)c3cccc(Cl)c3)c2cc1OC
3. COc1cc2nc(C)nc(N[C@@H](C)c3ccc(-c4ccccc4NC(C)=O)s3)c2cc1OC (racemic)
4. COc1cc2nc(C)nc(NC(C)c3cccc4scnc34)c2cc1OC (centres unmarked)
5. COc1cc2nc(C)nc(N[C@@H](C)c3ccc(-c4cccc(OC(F)(F)F)c4)s3)c2cc1OC (racemic)
6. COc1cc2nc(C)nc(NC(C)c3csc(-c4cnn(CCN5CCCC5)c4)c3)c2cc1OC (centres unmarked)

Output line:
1. 6.90
2. 6.27
3. 5.30
4. 5.74
5. 4.88
6. 5.46
